subject_of_test: T1, human CD200R1 with dual His-tags (human, UniProt Q8TD46 25-265)
T1 construct: Captured on the SPR chip by an anti-histidine antibody; also called hCD200R1-his; not shown: dual His-tags
T1 sequence (looked up): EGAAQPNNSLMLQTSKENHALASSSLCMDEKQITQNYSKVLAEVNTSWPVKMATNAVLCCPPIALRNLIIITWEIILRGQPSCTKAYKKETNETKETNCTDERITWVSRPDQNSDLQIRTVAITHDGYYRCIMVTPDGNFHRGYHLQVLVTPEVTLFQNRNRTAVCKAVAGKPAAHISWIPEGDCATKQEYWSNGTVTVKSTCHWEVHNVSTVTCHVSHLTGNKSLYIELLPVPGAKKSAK
experiment_description: SPR (Biacore CM5), His-tagged antigen captured by anti-histidine antibody, antibody as analyte, 1:1 Langmuir fit
measured_property: kon (M⁻¹ s⁻¹)
Report as a plain number; the unit M⁻¹ s⁻¹ is understood.

Find the measured kon of P001009v4 (antibody, V domains shown, P001009 with LC N31K (Kabat); also called P019001v4) VH: EVQLLESGGGLVQPGGSLRLSCAASGFTFSSYDMSWVRQAPGKGLEWVSWISHGGGSIYYADSVKGRFTISRDNSKNTLYLQMNSLRAEDTAVYYCARDAPAYSAPLFDYWGQGTLVTVSS VL: QSVLTQPPSASGTPGQRVTISCSGSSSNIGNKAVNWYQQLPGTAPKLLIYYDSNRPSGVPDRFSGSKSGTSASLAISGLRSEDEADYYCAAWDDSLSGYVFGGGTKLTVL and report it. 6.74e+06

Find the measured kon of P001009v2 (antibody, V domains shown, P001009 with LC S52K and D93R (Kabat); also called P019001v2) VH: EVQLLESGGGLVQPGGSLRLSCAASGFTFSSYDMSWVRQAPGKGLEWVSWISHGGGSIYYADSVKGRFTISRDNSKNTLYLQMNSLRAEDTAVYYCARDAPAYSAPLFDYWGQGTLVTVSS VL: QSVLTQPPSASGTPGQRVTISCSGSSSNIGNNAVNWYQQLPGTAPKLLIYYDKNRPSGVPDRFSGSKSGTSASLAISGLRSEDEADYYCAAWDRSLSGYVFGGGTKLTVL and report it. 7.52e+06

Find the measured kon of P001009v1 (antibody, V domains shown, P001009 with LC S52K and S94R (Kabat); also called P019001v1; P0001009v1) VH: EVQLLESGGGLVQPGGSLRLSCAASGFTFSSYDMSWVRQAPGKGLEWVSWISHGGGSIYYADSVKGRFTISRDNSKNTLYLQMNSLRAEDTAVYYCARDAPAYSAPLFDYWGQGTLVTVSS VL: QSVLTQPPSASGTPGQRVTISCSGSSSNIGNNAVNWYQQLPGTAPKLLIYYDKNRPSGVPDRFSGSKSGTSASLAISGLRSEDEADYYCAAWDDRLSGYVFGGGTKLTVL and report it. 4.77e+06

Find the measured kon of P001009 (IgG) (antibody, V domains shown, also called P001009 WT; P001009 wt) VH: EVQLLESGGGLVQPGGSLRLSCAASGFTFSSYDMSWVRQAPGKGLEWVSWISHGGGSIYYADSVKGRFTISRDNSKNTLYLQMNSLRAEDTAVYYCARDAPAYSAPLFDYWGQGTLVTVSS VL: QSVLTQPPSASGTPGQRVTISCSGSSSNIGNNAVNWYQQLPGTAPKLLIYYDSNRPSGVPDRFSGSKSGTSASLAISGLRSEDEADYYCAAWDDSLSGYVFGGGTKLTVL and report it. 2.81e+06
